Recorded melting point values for a group of molecules are listed next.
Quick note: give the figure in °C, leave out the unit.

# Molecule, Unit Abbreviation, melting point
records = [
    ("CCOc1cc(O)c2cc(F)c(F)c(F)c2n1", "°C", 171),
]

Pending molecule:
molecule CCN(CC)C(=O)CNC1(c2ccccc2Cl)C(=O)Nc2ccc(Cl)cc21 (stereo not given) , melting point observed: 223

---

Each entry below carries its recorded melting point.

# Compound, melting point
measured = [
    ("CC(C)(C)OC(=O)N1CC=C(c2c(F)cc(N)cc2F)CC1", "134 to 135 °C"),
    ("Cc1cccc2c(-c3ccc(Cl)cc3)onc12", "134 to 136 °C"),
    ("Cc1nc(Cl)c([N+](=O)[O-])c(NC(C)C)n1", "77 to 79 °C"),
    ("COC(=O)c1ccccc1NC(=O)NCc1ccccc1", "140 to 141 °C"),
    ("CCCCNC(=O)c1ccc(N2CCN(c3ccncc3)CC2)cc1", "172 to 174 °C"),
    ("COc1cccc(Cl)c1-c1cc2c(c3c1C(=O)NC3=O)c1cc(O)ccc1n2CCN1CCOCC1", "185 °C"),
    ("CCCC(=O)OC(C)OC(=O)NC1(C(=O)O)CC1 (stereo not given)", "90.4 to 93.4 °C"),
    ("CCCOc1ccccc1-c1nc(N)c(NC(=O)C(F)(F)F)c(=O)[nH]1", "203 to 204 °C"),
    ("CC1(C)COS(=O)Oc2ccc(C#N)cc21 (stereo not given)", "87 to 88 °C"),
]

The record that follows has no melting point shown yet.
Lab note: measured melting point of COc1ccc(CCN(C)CCCOc2ccc(NC(=O)c3cccc4c(=O)c5ccccc5[nH]c34)cc2)cc1OC was 140 °C
